The entries below are paired with their reported solubility kinetic.
conditions: buffer; pH 7.4; 200.0 µM
Supply the numeric figure in µg/mL, leaving out any unit text.

Before answering, review these 3 worked examples.
structure.smiles.string: Cc1ccc(N2C(=O)CN(Cc3ccccc3)C2=S)cc1C
readout.number: 0.3

structure.smiles.string: Cc1ccc2nc(COC(=O)c3ccc(Cl)nc3)cc(=O)n2c1
readout.number: 7.3

structure.smiles.string: CCCCN1C(=O)c2ccc(C(=O)OCC(=O)NCCc3ccc(S(N)(=O)=O)cc3)cc2C1=O
readout.number: 42.1

Next, consider the following molecule.
stdin: Any idea what its solubility kinetic is? The molecule is "Cc1ccnc(NS(=O)(=O)c2ccc3ccccc3c2)n1"
stdout: 28.1

* * *

details: buffer; pH 7.4; 200.0 µM
Form field: solubility kinetic (one value per entry).

// worked examples, solubility kinetic included
molecule: CCOC(=O)Cn1nc(C)c(NC(=O)COc2cccc(Cl)c2)c1C
solubility kinetic: > 54.9 µg/mL
--
molecule: CC(=O)N1CCN(S(=O)(=O)c2ccc(F)c(Cl)c2)CC1
solubility kinetic: > 48.1 µg/mL
--
molecule: Cn1c(=O)c(C(=O)NCc2ccc(Cl)cc2)c(O)c2ccccc21
solubility kinetic: < 0.4 µg/mL
--
molecule: O=C(CN1CCCC1)NN=C(c1ccccc1)c1ccccc1
solubility kinetic: > 46.1 µg/mL
--
molecule: O=C1COCC(=O)N1CCc1c[nH]c2ccccc12
solubility kinetic: > 38.7 µg/mL

Now look at this one.
stdin: What measured solubility kinetic goes with "COc1ccccc1OCC(=O)OCC(=O)NC1CCCCC1" ?
stdout: > 48.2 µg/mL

* * *

conditions: buffer; pH 7.4; 200.0 µM
log10(solubility kinetic) values by entry
Please be aware that the numbers have been log10-transformed from solubility kinetic in µg/mL.

compound: CC(C)c1ccc(CNC(=O)C(=O)NCC2CCCO2)cc1 (stereo not given)
log10(solubility kinetic): 1.45

stdin: For "O=C(Nc1cnccn1)Nc1ccccc1F" , what is its reported log10(solubility kinetic)?
stdout: 0.94

stdin: Query (compound): CC1CCCN(S(=O)(=O)c2cccc(C(=O)OCC(=O)N(C)Cc3c(F)cccc3Cl)c2)C1 (stereo not given) ; field requested: log10(solubility kinetic)
stdout: 0.94

stdin: For the compound "O=C(Cc1c(F)cccc1Cl)Nc1nccs1" , what log10(solubility kinetic) is on record?
stdout: 1.48

stdin: // query log10(solubility kinetic) value for entry "CC(=O)Nc1ccc2c(c1)C(=O)N(c1cccc3ccccc13)C2=O"
stdout: 0.91

* * *

conditions: buffer; pH 7.4; 200.0 µM
As shown below, each of these molecules has a reported solubility kinetic value.

molecule: NC(=O)COC(=O)c1cccc(S(=O)(=O)N2CCCCC2)c1
test.readout: solubility kinetic
result: > 49 µg/mL
--
molecule: O=C(O)c1cc(-n2cccc2)ccc1N1CCOCC1
test.readout: solubility kinetic
result: > 40.8 µg/mL
--
molecule: C=CCn1c(O)c(C(CC)=Nc2cccc(C(=O)O)c2)c(=O)[nH]c1=O
test.readout: solubility kinetic
result: > 51.5 µg/mL

stdin: Which solubility kinetic value is on record for CC(NC(=O)c1ccncc1)c1ccc(Cl)cc1Cl (stereo unspecified) ?
stdout: > 44.3 µg/mL

stdin: Fill in: solubility kinetic of "O=C(O)/C=C/C(=O)Nc1ccc(O)cc1" is ___
stdout: > 31.1 µg/mL

* * *

conditions: buffer; pH 7.4; 200.0 µM
test.readout: solubility kinetic

compound: CCN(CC(=O)NC1CCS(=O)(=O)C1)c1ccc(S(=O)(=O)N(CC)CC)cc1[N+](=O)[O-] (configuration not stated)
solubility kinetic: > 71.5 µg/mL

compound: CN(C)CCOC1c2ccccc2-c2ccccc21.O=C(O)C(=O)O
solubility kinetic: > 51.5 µg/mL

compound: Cc1ccnc(SCc2cn3c(C)cc(C)nc3n2)n1
solubility kinetic: > 42.8 µg/mL

compound: Cc1ccc([N+](=O)[O-])cc1S(=O)(=O)Nc1cccc(S(=O)(=O)NC2=NCCC2)c1
solubility kinetic: > 65.8 µg/mL

stdin: Data request, read-out solubility kinetic, for "O=C(CNC(=O)c1ccccc1F)OCC(=O)c1ccc(Cl)s1"
stdout: > 53.4 µg/mL

stdin: Request the reported solubility kinetic associated with O=C1NCC(NC(=O)C(F)(F)F)c2cc3c(cc21)OCO3 (configuration not stated)
stdout: > 45.3 µg/mL

stdin: Recorded solubility kinetic for "CSc1ccccc1C(=O)NCc1cccnc1" , please?
stdout: > 38.8 µg/mL

stdin: What value of solubility kinetic has been recorded for this entry: "CC(=O)c1ccc(NC(=O)C[n+]2cccc(C)c2)cc1.[Cl-]"
stdout: > 45.7 µg/mL

stdin: I would be grateful if you could share the reported solubility kinetic for "CC(=NCc1ccco1)c1c(O)n(-c2ccccc2C)c(=O)[nH]c1=O" .
stdout: > 50.9 µg/mL

* * *

Reported values of solubility kinetic for individual entries
settings: buffer; pH 7.4; 200.0 µM

Below: 4 compounds and their reported solubility kinetic.
compound: Cc1cc(C)nc(NC(=O)c2cccs2)n1
solubility kinetic: > 0.035 mg/mL
//
compound: COCCNC(=S)N1CCCC(CO)C1 (stereo not given)
solubility kinetic: > 0.0349 mg/mL
//
compound: C=CCN(CC=C)C(=O)C[n+]1ccc(C(N)=O)cc1.[Cl-]
solubility kinetic: > 0.0444 mg/mL
//
compound: CN(C)CCOC1c2ccccc2CCc2ccc3ccccc3c21.O=C(O)C(=O)O (stereo not given)
solubility kinetic: > 0.0632 mg/mL

stdin: # solubility kinetic lookup, item "Cc1cc(C)nc(Nc2ccc(O)cc2)n1"
stdout: > 0.0323 mg/mL

stdin: Param item = "O=C(CSCc1ccc(Cl)cc1Cl)Nc1ccc(O)cc1C(=O)O" ; retrieve measured solubility kinetic.
stdout: > 0.0579 mg/mL

stdin: // lookup solubility kinetic for "O=C(Nc1ccccc1Cl)NC1(C(=O)N2CCC(O)CC2)CCCCC1"
stdout: > 0.057 mg/mL

stdin: Which solubility kinetic is reported for this compound? "CCCn1c(N)cc(=O)n(CCC)c1=O"
stdout: > 0.0317 mg/mL

stdin: // solubility kinetic lookup, key: "Cc1c(C)n(C)c2ccc(C(=O)NCCc3ccco3)cc12"
stdout: > 0.0445 mg/mL

stdin: Consider the compound "Cc1ccc(/C=C2\SC(=S)N(c3cccnc3)C2=O)cc1" and give its measured solubility kinetic.
stdout: < 0.0003 mg/mL

stdin: # solubility kinetic lookup, item "CCCCN(C)Cc1c(C)[nH]c2ccccc2c1=O"
stdout: > 0.0388 mg/mL

* * *

Listed here are molecules together with their documented solubility kinetic.
conditions: buffer; pH 7.4; 200.0 µM

Solved cases below.
molecule: COC(=O)c1ccccc1NC(=O)c1onc(C)c1Cl
solubility kinetic: < 0.3 µg/mL
//
molecule: CC(=O)NC(Cc1ccccc1)Cc1ccccc1
solubility kinetic: > 38 µg/mL
//
molecule: COc1ccc(CNC(=O)CCSCc2cccc(F)c2)cc1
solubility kinetic: > 50 µg/mL
//
molecule: O=C(COC(=O)c1ccccc1F)NC1CCCC1
solubility kinetic: > 39.8 µg/mL

stdin: Given the molecule "CC(C)C(O)(C(=O)NNc1ccccc1)C(C)C" , what is its reported solubility kinetic?
stdout: > 37.6 µg/mL

stdin: Recorded solubility kinetic for O=C1NC2=C(C(=O)CCC2)C(c2ccccc2[N+](=O)[O-])N1 (configuration not stated) , please?
stdout: > 43.1 µg/mL

stdin: solubility kinetic for O=C(N/N=C1\CC2CC=CC12)c1ccc(Br)cc1 (configuration not stated) ?
stdout: > 45.8 µg/mL

* * *

settings: buffer; pH 7.4; 200.0 µM
test.readout: solubility kinetic

Below, each entry is followed by its recorded solubility kinetic result.
molecule: NC(=O)C1CCN(C(=O)CNC(=O)c2ccc(F)cc2)CC1
solubility kinetic: > 46.1 µg/mL
--
molecule: CCCC(=O)Nc1cc(C(=O)O)ccc1Sc1ccc(C)cc1
solubility kinetic: > 49.4 µg/mL
--
molecule: CC(NC(=O)c1ccccc1Cl)c1ccc(-n2ccnc2)cc1 (centres undefined)
solubility kinetic: > 48.9 µg/mL

stdin: Look at this molecule and give its reported solubility kinetic. "COc1ccc(C2=NC(C)(C)Cc3cc(OC)c(OC)cc32)cc1"
stdout: > 48.8 µg/mL

* * *

Listed below: solubility kinetic values for each entry.
details: buffer; pH 7.4; 200.0 µM

stdin: Could you tell me which solubility kinetic is on file for "O=C(O)CCn1c(=O)oc2cc(S(=O)(=O)N3CCCC3)ccc21" ?
stdout: > 51.1 µg/mL

stdin: Could you share which solubility kinetic value was measured for "CC(=O)c1ccc(-n2ccnc2)cc1" ?
stdout: > 27.9 µg/mL

stdin: Fill in the blank: the reported solubility kinetic of "COC(=O)Cc1ccc(NC(=S)NC2CC2)cc1" is ____.
stdout: > 39.7 µg/mL

stdin: Suppose we examine the molecule "COc1ccc(/C=N/NC(=O)c2cccnc2)cc1CN1CCOCC1" ; what solubility kinetic value has been reported?
stdout: > 53.2 µg/mL

stdin: Record request: solubility kinetic value, item "COc1cccc2[nH]c3ccccc3c(=O)c12"
stdout: > 33.8 µg/mL

stdin: # input molecule: "COc1ccc(-n2c(C)c(C)c3c(NCCCO)ncnc32)cc1" ; wanted: its solubility kinetic
stdout: > 49 µg/mL

stdin: Any idea what solubility kinetic was measured for "CC[C@H](C)[C@H](NC(N)=O)C(=O)NCCc1ccc(Cl)cc1" ?
stdout: > 46.8 µg/mL

stdin: # input molecule: O=C(O)C1CCCCC1C(=O)NCc1ccccn1 (configuration not stated) ; wanted: its solubility kinetic
stdout: > 39.3 µg/mL
